- PROCEDURE_SUMMARY: Preliminary toxicity studies in rats
- Assay type: in vivo, rat
- EXPERIMENTAL_SETUP: rat, in vivo, read-out: tolerated dose without any detrimental effects
READOUT: NOAEL

Task: # NOAEL lookup, item `CCCc1nn(C)c2c(=O)[nH]c(-c3cc(S(=O)(=O)N4CCN(C)CC4)cc4c3OCC4)nc12`
Result: ~0.35 mg/kg

// provenance: patent US6242444A
